The measured values listed here are drawn from PubChem BioAssay (Tox21).

Experiment: qHTS assay for identifying genotoxic compounds that show differential cytotoxicity against isogenic chicken DT40 cell lines with known DNA damage response pathways - wild type cell line (AID 743012); note: nearly all actives have a fitted effect of over 60% in size
Conditions: DT40 wild type chicken cells viability, CellTiter-Glo, 40 h; series mostly up to 68.4 µM
From the text: U.S. Tox21 Program National Center for Advancing Translational Sciences [NCATS] NIH Chemical Genomics Center [NCGC] U.S. Environmental Protection Agency [EPA] National Institutes of Environmental Health Sciences [NIEHS] National Toxicology Program [NTP] U.S. Food and Drug Administration [FDA] Tox21 Assay Overview: DNA repair pathways play a critical role in cellular homeostasis by repairing DNA damage induced by endogenous processes and xenobiotics. […]
Records with an inconclusive call do not appear. Calls of active or inactive are those of the source. Calls come from the whole dose curve; as a rule, active = well fitted cell-killing curve with a large enough effect in the repeat runs; inconclusive = weak or mixed curves, or effect the other way; inactive = no such curve, though single readings can be large or run the other way.
Labels: YES = active, NO = inactive

# MOLECULE, CAT
records = [
    ("BrC(Br)C(Br)Br", "NO"),
    ("C1=CCC2CC=CC2C1 (centres undefined)", "NO"),
    ("CCC1CCC(CCC(=O)O)C1 (centres undefined)", "NO"),
    ("Cc1cccc2sc(N)nc12", "NO"),
    ("Cc1ccc(N(CC2=NCCN2)c2cccc(O)c2)cc1", "YES"),
    ("N[C@@H](Cc1cc(I)c(O)c(I)c1)C(=O)O", "NO"),
    ("CC1CCCC(=O)C1=O (centres undefined)", "NO"),
    ("O=C(O)CCCc1c[nH]c2ccccc12", "NO"),
    ("O=C(NS(=O)(=O)/C=C/c1ccccc1)c1ccc(F)cc1Cl", "NO"),
    ("C=CC(=O)NC(C)C", "NO"),
    ("CC1CCC(C(C)CS)CC1S (centres undefined)", "NO"),
    ("O=C1[C@@H]2[C@H]3CC[C@H](C3)[C@@H]2C(=O)N1CCCCN1CCN(c2ncccn2)CC1", "NO"),
    ("CCOC(=O)C(C)O (centres undefined)", "NO"),
    ("COc1cc(NCc2ccc3nc(N)nc(N)c3c2C)cc(OC)c1OC", "YES"),
]

---

assay: qHTS assay to identify small molecule agonists of the constitutive androstane receptor (CAR) signaling pathway - cell viability counter screen (AID 1224836); details: HepG2-CYP2B6-hCAR viability, CellTiter-Fluor, 23 h, PK11195 added to every well; series mostly up to 92.4 µM; note: nearly all actives have a fitted effect of over 45% in size
Inconclusive results are not listed. Activity calls are given as the source filed them. Calls follow the shape of the dose curve; as a rule, active = well fitted cell-killing curve with a large enough effect in the repeat runs; inconclusive = weak or mixed curves, or effect the other way; inactive = flat fitted curve, though single readings scatter.
Labels: active, inactive

# COMPOUND, CAT
records = [
    ("Oc1ccc2c(c1)Cc1ccccc1-2", "inactive"),
    ("COc1cc(S(=O)(=O)Nc2ccccc2)c(OC)cc1N", "inactive"),
    ("CCN(CC)CC(=O)Nc1c(C)cccc1C(=O)OC", "inactive"),
    ("CCN(CC)CCNC(=O)c1cc(Cl)c(N)cc1OC", "inactive"),
    ("O=C(/C=C/c1ccc([N+](=O)[O-])cc1)c1ccccc1", "active"),
    ("O=C(c1ccccc1)c1ccc(O)cc1", "inactive"),
    ("c1ccc(CNc2ncnc3c2ncn3C2CCCCO2)cc1 (configuration not stated)", "inactive"),
]

---

assay: qHTS assay to identify small molecule agonists or antagonists of the thyroid stimulating hormone receptor (TSHR) signaling pathway - wild type cell line counter screen (AID 1259384); conditions: HEK293 wild type, cAMP HTRF counter-screen; series mostly up to 92.4 µM
Records with an inconclusive call do not appear. Calls of active or inactive are those of the source. Calls come from the whole dose curve.
Labels: True = active, False = inactive

# COMPOUND, CAT
measured = [
    ("CCCCC[C@H](O)/C=C/[C@H]1[C@H](O)CC(=O)[C@@H]1C/C=C\\CCCC(=O)O", "True"),
    ("CC[C@H]1OC(=O)[C@H](C)[C@@H](O[C@H]2C[C@@](C)(OC)[C@@H](O)[C@H](C)O2)[C@H](C)[C@@H](O[C@@H]2O[C@H](C)C[C@H](N(C)C)[C@H]2O)[C@](C)(O)C[C@@H](C)CN(C)[C@H](C)[C@@H](O)[C@]1(C)O", "False"),
    ("CC(C)COC(=O)COc1cc(Cl)c(Cl)cc1Cl", "False"),
    ("CNC1CCCN(c2c(F)cc3c(=O)c(C(=O)O)cn(C4CC4)c3c2OC)C1 (stereo not drawn)", "False"),
    ("CCCCCCCC/C=C/C(=O)O", "False"),
    ("O=C(NC(Cc1cc(=O)[nH]c2ccccc12)C(=O)O)c1ccc(Cl)cc1 (stereo not drawn)", "False"),
    ("O=C(O)CCCc1c[nH]c2ccccc12", "False"),
    ("COc1ccc(C)cc1", "False"),
    ("Cc1ccc(NC(=O)N(C)C)cc1NC(=O)N(C)C", "False"),
    ("O=C1CC[C@@H](C(=O)O)N1", "False"),
    ("CO[C@@H]1[C@@H](OC)[C@H](C)[C@@](O)(CC(=O)O)O[C@H]1[C@H](C)[C@H]1O[C@@]2(CC[C@@](C)([C@H]3CC[C@@](C)([C@@H]4O[C@@H]([C@H]5O[C@](C)(O)[C@H](C)C[C@@H]5C)C[C@@H]4OC4C[C@H](OC)[C@@H](OC)[C@H](C)O4)O3)O2)C[C@H](O)[C@H]1C (stereo partly drawn)", "False"),
    ("CC1CCC(C(C)CS)CC1S (stereo not drawn)", "False"),
    ("Cc1ccccc1S(N)(=O)=O", "False"),
    ("COC(OC)OC", "False"),
    ("Nc1ccn([C@H]2CS[C@@H](CO)O2)c(=O)n1", "False"),
    ("CC(C)(C)C(O)/C=C/c1ccc2c(c1)OCO2 (stereo not drawn)", "False"),
    ("COc1cc(OC)c2ccc(=O)oc2c1", "False"),
    ("CCOC(=O)Oc1ccc(CCNC(=O)[C@H](CCSC)NC(C)=O)cc1OC(=O)OCC", "False"),
    ("C=CC(=O)NC(C)C", "False"),
    ("Cc1c[nH]c2ccccc12", "False"),
    ("CC1C(C)(C)C2=C(C(=O)CCC2)C1(C)C (stereo not drawn)", "False"),
    ("CCCCCC", "False"),
    ("CCCCCCC(CO)CCCC (stereo not drawn)", "False"),
]

---

molecular target: Nuclear receptor ROR-gamma (Homo sapiens) (UniProt P51449); test: qHTS assay to identify small molecule antagonists of the retinoid-related orphan receptor gamma (ROR-gamma) signaling pathway (AID 1159521; note: nearly all actives have a fitted effect of over 50% in size); conditions: Tet-on RORgamma CHO cells, RORE-luciferase, 16 h; series mostly up to 92.4 µM
Results filed as inconclusive are left out. Activity calls are given as the source filed them. Calls follow the shape of the dose curve; as a rule, active = well fitted inhibition curve with a large enough effect in the repeat runs; inconclusive = weak or mixed curves, or effect the other way; inactive = no such curve, though single readings can be large or run the other way.
Labels: y = active, n = inactive

# COMPOUND, CAT
measured = [
    ("CCC(CO)(CO)CO", "n"),
    ("CCN(CC)CCNC(=O)c1cc(Cl)c(N)cc1OC", "n"),
    ("CC(CN(CCN(CC(C)OCCO)CC(C)OCCO)CC(C)OCCO)OCCO (centres undefined)", "n"),
    ("CCCCOC(=O)CCCCC(=O)OCCCC", "n"),
    ("CCOC(=O)Oc1ccc(CCNC(=O)[C@H](CCSC)NC(C)=O)cc1OC(=O)OCC", "n"),
    ("CCOCCC(=O)OCC", "n"),
    ("C=CCOC(=O)COCCC(C)C", "n"),
    ("NC(=O)CCCCC(N)=O", "n"),
    ("CC1CCCO1 (centres undefined)", "n"),
    ("CC(CO)(CO)C(=O)O", "n"),
    ("Oc1ccc2c(c1)Cc1ccccc1-2", "n"),
    ("CCOC(=O)C(C)O (centres undefined)", "n"),
    ("CNS(=O)(=O)c1cc(C(=O)N2CCC(CCN3C4CCC3CC(n3c(C)nc5ccccc53)C4)(c3cccc(F)c3)CC2)c(Cl)cc1F (centres undefined)", "y"),
    ("CCCCCCCC(=O)OCCCCCC", "n"),
]

---

experiment: qHTS assay for small molecules that induce genotoxicity in human embryonic kidney cells expressing luciferase-tagged ATAD5 - cell viability (AID 651634); details: HEK293T ATAD5-luc cells viability, CellTiter-Fluor, 15.5 h; series mostly up to 83.3 µM; note: nearly all actives have a fitted effect of over 25% in size
Inconclusive results are not listed. The source made the active and inactive calls. The call rests on the fitted dose curve.
Labels: 1.0 (active), 0.0 (inactive)

# MOLECULE, CAT
rows = [
    ("CCCCCCCCCCCCCCCCCC(=O)OCC(CC)CCCC (stereo not drawn)", 0.0),
    ("O=C1c2ccccc2C(=O)c2c(O)ccc(O)c21", 1.0),
    ("O=NN(CCCl)C(=O)NCCCl", 0.0),
    ("Cc1ccc2c(c1)CCCN2", 0.0),
    ("CCN(CC)C(=O)N1CCN(C)CC1", 0.0),
    ("CC(C)(C)C1(CCc2ccc(Cl)cc2)CO1 (stereo not drawn)", 0.0),
    ("O=C(C(=O)c1ccco1)c1ccco1", 0.0),
    ("Cc1ccc(Nc2c(F)cccc2Cl)c(CC(=O)O)c1", 0.0),
    ("CCCCCCOC(=O)CCCCC", 0.0),
    ("CCN(CC)c1ccc(C(=C2C=CC(=[N+](CC)CC)C=C2)c2ccc(S(=O)(=O)O)cc2S(=O)(=O)[O-])cc1", 1.0),
    ("Cc1ccccc1S(N)(=O)=O", 0.0),
    ("CC[C@@H](CO)NCCN[C@@H](CC)CO", 0.0),
    ("CO[C@@H]1[C@@H](OC)[C@H](C)[C@@](O)(CC(=O)O)O[C@H]1[C@H](C)[C@H]1O[C@@]2(CC[C@@](C)([C@H]3CC[C@@](C)([C@@H]4O[C@@H]([C@H]5O[C@](C)(O)[C@H](C)C[C@@H]5C)C[C@@H]4OC4C[C@H](OC)[C@@H](OC)[C@H](C)O4)O3)O2)C[C@H](O)[C@H]1C (stereo partly drawn)", 1.0),
    ("COc1ccc(C(=O)NCc2ccc(OCCN(C)C)cc2)cc1OC", 0.0),
    ("COc1cc(C(C)=O)ccc1OCCCN1CCC(c2noc3cc(F)ccc23)CC1", 0.0),
    ("CC[C@H]1OC(=O)[C@H](C)[C@@H](O[C@H]2C[C@@](C)(OC)[C@@H](O)[C@H](C)O2)[C@H](C)[C@@H](O[C@@H]2O[C@H](C)C[C@H](N(C)C)[C@H]2O)[C@](C)(O)C[C@@H](C)/C(=N\\OCOCCOC)[C@H](C)[C@@H](O)[C@]1(C)O", 0.0),
    ("O=C(O)CN1C(=O)c2cccc3cccc(c23)C1=O", 0.0),
    ("CC(C)CC(O)CC(C)C", 0.0),
    ("CC(C)(C)S", 0.0),
    ("Nc1ccc(S(=O)(=O)NCc2ccccc2)cc1", 0.0),
    ("O=C1OC(=O)c2c(Br)c(Br)c(Br)c(Br)c21", 0.0),
    ("Cc1cn([C@H]2C[C@H](F)[C@@H](CO)O2)c(=O)[nH]c1=O", 0.0),
    ("CC[C@H]1OC(=O)[C@H](C)[C@@H](O[C@H]2C[C@@](C)(OC)[C@@H](O)[C@H](C)O2)[C@H](C)[C@@H](O[C@@H]2O[C@H](C)C[C@H](N(C)C)[C@H]2O)[C@](C)(O)C[C@@H](C)CN(C)[C@H](C)[C@@H](O)[C@]1(C)O", 0.0),
    ("CC(O)Cn1cnc2c1c(=O)n(C)c(=O)n2C (stereo not drawn)", 0.0),
    ("CNc1c2c(nn1C)CCCC2", 0.0),
    ("CC/C=C\\C/C=C\\C/C=C\\CCCCCCCC(=O)OCC", 0.0),
    ("Cc1c[nH]c2ccccc12", 0.0),
    ("CCCCCCC(O)CCCCCCCCCCC(=O)OC (stereo not drawn)", 0.0),
    ("O=S(=O)(Cl)c1c(Cl)cccc1Cl", 0.0),
    ("Cc1cc(CCC(=O)OCCOCCOCCOC(=O)CCc2cc(C)c(O)c(C(C)(C)C)c2)cc(C(C)(C)C)c1O", 0.0),
    ("CCCCCCCCCCCSCC(=O)O", 0.0),
    ("CCCCC(CC)COS(=O)(=O)O (stereo not drawn)", 0.0),
    ("O=S(=O)(O)CO", 0.0),
    ("COc1ccc(-n2nc(C(F)F)cc2-c2ccc(S(C)=O)cc2)cc1 (stereo not drawn)", 0.0),
    ("CCCCCC", 0.0),
    ("CC(=O)OC(C)C[N+](C)(C)C (stereo not drawn)", 0.0),
    ("O=C1[C@@H]2[C@H]3CC[C@H](C3)[C@@H]2C(=O)N1CCCCN1CCN(c2ncccn2)CC1", 0.0),
    ("C1CCCCC1", 0.0),
    ("CC1CCCC(=O)C1=O (stereo not drawn)", 0.0),
    ("O=c1[nH][nH]c(=O)c2cc([N+](=O)[O-])ccc12", 0.0),
    ("CC1CCc2nccnc21 (stereo not drawn)", 0.0),
    ("COC(=O)c1sccc1S(N)(=O)=O", 0.0),
    ("C/C(C=O)=C\\c1ccccc1", 0.0),
    ("Nc1cccc2c(N)cccc12", 0.0),
    ("CCCCCCCC/C=C\\CCCCCCCC(=O)OCCO", 0.0),
    ("COC1CCC=CO1 (stereo not drawn)", 0.0),
    ("C=CC(=O)NC(C)C", 0.0),
    ("CC(C)(O)c1coc(S(=O)(=O)NC(=O)Nc2c3c(cc4c2CCC4)CCC3)c1", 0.0),
]
